Below, each entry is listed alongside its reported Phage library screen NGS readout, Target Concentration 30.
- target_system: RNF31 PUB domain (Homo sapiens, UniProt Q96EP0)
- Construct: MBP-TEV (N, cleaved yes); made in house; host or cells: E. coli BL21 (DE3) pLysS
- Sequence (Q96EP0 1-179): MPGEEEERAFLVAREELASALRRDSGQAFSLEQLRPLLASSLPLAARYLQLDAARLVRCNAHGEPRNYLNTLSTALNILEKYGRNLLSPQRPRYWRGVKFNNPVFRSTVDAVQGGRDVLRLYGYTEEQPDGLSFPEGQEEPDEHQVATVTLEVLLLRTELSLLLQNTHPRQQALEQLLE
- assay_text: Phage Library Screening with NGS, RNF31 PUB domain
- Assay type: binding
- protocol_conditions: RNF31 PUB domain clusters C41-C45; target concentration 30
metric_name: Phage library screen NGS readout, Target Concentration 30

residues | target_system | readout_value
DPAWQECVIAALVCDTY | RNF31 PUB domain (Homo sapiens, UniProt Q96EP0) | 0
DPAWLDCIYAAYDCVTD | RNF31 PUB domain (Homo sapiens, UniProt Q96EP0) | 1
DPAIQECLLAAATCWTY | RNF31 PUB domain (Homo sapiens, UniProt Q96EP0) | 0
DPAHDWCLYAAYDCRVY | RNF31 PUB domain (Homo sapiens, UniProt Q96EP0) | 0
DPAYDYCLYAAYDCTQT | RNF31 PUB domain (Homo sapiens, UniProt Q96EP0) | 0
DPALEICWDAAIQCSYV | RNF31 PUB domain (Homo sapiens, UniProt Q96EP0) | 3
DPAYWDCMYAAFYCDDI | RNF31 PUB domain (Homo sapiens, UniProt Q96EP0) | 0
DPAYDLCLNAAVACTYV | RNF31 PUB domain (Homo sapiens, UniProt Q96EP0) | 2
DPAQYQCDIAAQVCSTY | RNF31 PUB domain (Homo sapiens, UniProt Q96EP0) | 0
DPAAWECHIAAFVCSTY | RNF31 PUB domain (Homo sapiens, UniProt Q96EP0) | 1
DPAWESCMYAAYDCDNE | RNF31 PUB domain (Homo sapiens, UniProt Q96EP0) | 1
